assay overview: In vitro cytotoxic test on uninfected L-929 cells (alamarBlue)
Type: cell-based, mouse
assay setup: mouse, uninfected L-929 cells; mammalian L929 cells, 96 h, alamarBlue; ± 2.0; read-out: Cytotoxicity CC50(μM) ± 2.0
Would you kindly list CC50 at 96 h for each of these molecules?
# number only, unit µM dropped from output

Given the entry COc1ccc([C@@H]2Oc3ccccc3C(=O)[C@H]2C(=O)c2ccccc2)cc1 (relative stereo) , report its measured CC50 at 96 h.
223

Given COc1ccc([C@@H]2Oc3ccc(Cl)cc3C(=O)[C@H]2C(=O)c2ccccc2)cc1 (relative stereo) , state its recorded CC50 at 96 h.
205

Item Cc1ccc(C(=O)[C@@H]2C(=O)c3ccccc3O[C@H]2c2ccccc2Cl)cc1 (relative stereo) has what recorded CC50 at 96 h?
62.5

Field request: CC50 at 96 h | item: COc1ccc(C(=O)[C@@H]2C(=O)c3ccccc3O[C@H]2c2ccccc2)cc1 (relative stereo)
223

// returns reported CC50 at 96 h for input COc1ccc(C(=O)[C@@H]2C(=O)c3ccccc3O[C@H]2c2ccc(OC)cc2)cc1 (relative stereo)
103

Data request, read-out CC50 at 96 h, for Cc1ccc(C(=O)[C@@H]2C(=O)c3ccccc3O[C@H]2c2ccc(F)cc2)cc1 (relative stereo)
111

Which CC50 at 96 h is reported for this molecule? CCC1(C(=O)c2ccccc2)C(=O)c2ccccc2OC1c1ccccc1 (stereo not shown)
449

Please give the measured CC50 at 96 h for this molecule: O=C(c1ccccc1)[C@@H]1C(=O)c2ccccc2O[C@H]1c1ccccn1 (relative stereo)
243

Looking for the measured CC50 at 96 h of O=C(c1ccccc1)[C@@H]1C(=O)c2ccccc2O[C@H]1c1ccccc1 (relative stereo) [Compound 2a, trans-3-benzoyl-2-phenylchroman-4-one] , can you help?
80

Given COc1ccc2c(c1)C(=O)[C@@H](C(=O)c1ccccc1)[C@H](c1ccc(F)cc1)O2 (relative stereo) , state its recorded CC50 at 96 h.
106

Please look up its CC50 at 96 h: COc1ccc([C@@H]2Oc3ccc(OC)cc3C(=O)[C@H]2C(=O)c2ccccc2)cc1 (relative stereo)
206

Given the molecule O=C(c1ccccc1)[C@@H]1C(=O)c2ccccc2O[C@H]1c1ccc([N+](=O)[O-])o1 (relative stereo) , what is its reported CC50 at 96 h?
27.5

Request the reported CC50 at 96 h associated with COc1ccc(C(=O)[C@@H]2C(=O)c3ccccc3O[C@H]2c2ccccc2Cl)cc1 (relative stereo)
408

Which CC50 at 96 h is reported for this molecule? COc1ccc([C@@H]2Oc3ccccc3C(=O)[C@H]2C(=O)c2ccc(C)cc2)cc1 (relative stereo)
107

Any idea what its CC50 at 96 h is? The molecule is O=C(c1ccccc1)[C@@H]1C(=O)c2ccccc2O[C@H]1c1ccc(OCc2ccccc2)cc1 (relative stereo)
92.1

Name the recorded CC50 at 96 h for O=C(c1ccc(Cl)cc1)[C@@H]1C(=O)c2ccccc2O[C@H]1c1ccccc1 (relative stereo) .
110

Which value of CC50 at 96 h has been reported for O=C(c1ccccc1)[C@@H]1C(=O)c2ccccc2O[C@H]1c1ccco1 (relative stereo) in the records?
503

// query CC50 at 96 h value for entry O=C(c1ccccc1)[C@@H]1C(=O)c2ccccc2O[C@H]1c1ccccc1Cl (relative stereo)
442

Dear colleague, I am looking for the recorded CC50 at 96 h of the following molecule: O=C(c1ccccc1)[C@@H]1C(=O)c2ccccc2O[C@H]1c1ccc(F)cc1 (relative stereo)
231

Using the record for O=C(c1ccccc1)[C@@H]1C(=O)c2cc(Cl)ccc2O[C@H]1c1ccccc1 (relative stereo) , report its CC50 at 96 h.
221

So what's the measured CC50 at 96 h for this one? COc1ccc2c(c1)C(=O)[C@@H](C(=O)c1ccccc1)[C@H](c1ccccc1Cl)O2 (relative stereo)
102

Item c1ccc(-c2n[nH]c3c2C(c2ccccc2)Oc2ccccc2-3)cc1 (stereo not shown) has what recorded CC50 at 96 h?
38.6
